- experimental target: 5-HT1e receptor (Homo sapiens, UniProt P28566)
- Sequence (P28566 whole entry): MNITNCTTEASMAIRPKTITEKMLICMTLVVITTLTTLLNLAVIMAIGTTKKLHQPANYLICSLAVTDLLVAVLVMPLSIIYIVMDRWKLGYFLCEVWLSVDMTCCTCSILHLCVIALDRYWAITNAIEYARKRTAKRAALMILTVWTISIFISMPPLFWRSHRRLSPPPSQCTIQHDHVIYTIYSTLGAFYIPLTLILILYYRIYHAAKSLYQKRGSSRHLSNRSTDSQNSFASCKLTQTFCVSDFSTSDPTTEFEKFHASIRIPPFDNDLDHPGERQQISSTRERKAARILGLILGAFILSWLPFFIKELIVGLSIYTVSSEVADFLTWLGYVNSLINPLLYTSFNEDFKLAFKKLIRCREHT
- assay method text: 5-HTome G protein activation BRET screen
- Type: cell-based
- condition info: 5-HTome screen
assay readout: EC50

Ask: Quick one: EC50 for CC[C@@H](N)Cc1cc(OC)c(C)cc1OC [(R)-Ariadne] ?
Reply: 0.3 to 0.6 µM

* * *

- experimental target: UniProt P41595
- Sequence (P41595 whole entry): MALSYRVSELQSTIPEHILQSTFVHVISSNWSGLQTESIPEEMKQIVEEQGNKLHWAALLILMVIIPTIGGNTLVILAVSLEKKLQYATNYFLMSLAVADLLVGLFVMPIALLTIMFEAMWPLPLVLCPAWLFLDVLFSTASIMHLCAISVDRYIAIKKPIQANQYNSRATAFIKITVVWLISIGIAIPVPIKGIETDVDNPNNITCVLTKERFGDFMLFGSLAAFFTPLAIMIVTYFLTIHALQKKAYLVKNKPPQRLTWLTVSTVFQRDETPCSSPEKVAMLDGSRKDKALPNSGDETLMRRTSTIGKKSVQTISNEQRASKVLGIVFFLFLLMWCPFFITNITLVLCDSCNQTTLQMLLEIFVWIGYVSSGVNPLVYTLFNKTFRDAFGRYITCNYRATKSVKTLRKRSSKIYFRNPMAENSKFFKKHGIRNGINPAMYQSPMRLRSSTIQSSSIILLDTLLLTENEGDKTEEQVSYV
- assay method text: G protein
- Assay type: cell-based
- condition info: 5-HTome screen
pEC50: −log10 of the molar value.
assay readout: pEC50

Ask: Provide value of pEC50 for this record tested with UniProt P41595: CC[C@@H](N)Cc1cc(OC)c(C)cc1OC [(R)-Ariadne]
Reply: > 6.00

* * *

- experimental target: 5-HT1A receptor (Homo sapiens)
- Sequence (P08908 whole entry): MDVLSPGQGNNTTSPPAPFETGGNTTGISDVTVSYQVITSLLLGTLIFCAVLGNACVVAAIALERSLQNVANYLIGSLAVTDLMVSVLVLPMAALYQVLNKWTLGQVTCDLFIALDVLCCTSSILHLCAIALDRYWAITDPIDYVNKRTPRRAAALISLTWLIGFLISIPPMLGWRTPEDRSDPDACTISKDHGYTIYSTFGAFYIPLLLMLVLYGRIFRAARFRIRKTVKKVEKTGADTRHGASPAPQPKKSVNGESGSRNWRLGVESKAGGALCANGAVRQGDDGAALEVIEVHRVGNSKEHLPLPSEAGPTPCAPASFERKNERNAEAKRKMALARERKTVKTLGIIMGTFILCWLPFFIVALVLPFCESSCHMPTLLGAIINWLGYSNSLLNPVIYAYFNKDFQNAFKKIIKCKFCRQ
- assay method text: 5-HTome G protein activation BRET screen
- condition info: 5-HTome screen
pEC50: −log10 of the molar value.
assay readout: pEC50

Ask: Quick one: pEC50 for CC[C@@H](N)Cc1cc(OC)c(C)cc1OC [(R)-Ariadne] ?
Reply: 6.22 to 6.52

* * *

- experimental target: 5-HT1B receptor (Homo sapiens, UniProt P28222)
- Sequence (P28222 whole entry): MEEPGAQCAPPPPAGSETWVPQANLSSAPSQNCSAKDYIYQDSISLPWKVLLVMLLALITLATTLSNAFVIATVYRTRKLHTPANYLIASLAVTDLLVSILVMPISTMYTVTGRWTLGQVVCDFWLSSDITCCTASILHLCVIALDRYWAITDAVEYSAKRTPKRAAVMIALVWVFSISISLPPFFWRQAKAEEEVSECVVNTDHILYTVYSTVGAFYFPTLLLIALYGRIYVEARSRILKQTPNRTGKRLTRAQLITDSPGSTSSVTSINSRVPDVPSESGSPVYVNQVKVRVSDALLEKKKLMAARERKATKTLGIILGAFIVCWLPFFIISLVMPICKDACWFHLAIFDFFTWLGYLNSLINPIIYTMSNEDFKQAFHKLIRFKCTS
- assay method text: 5-HTome G protein activation BRET screen
- condition info: 5-HTome screen
assay readout: EC50 (µM)
Please respond with the number in µM and leave the unit unwritten.

Ask: Quick one: EC50 for CC[C@@H](N)Cc1cc(OC)c(C)cc1OC [(R)-Ariadne] ?
Reply: 4

* * *

- experimental target: UniProt P21728
- Sequence (P21728 whole entry): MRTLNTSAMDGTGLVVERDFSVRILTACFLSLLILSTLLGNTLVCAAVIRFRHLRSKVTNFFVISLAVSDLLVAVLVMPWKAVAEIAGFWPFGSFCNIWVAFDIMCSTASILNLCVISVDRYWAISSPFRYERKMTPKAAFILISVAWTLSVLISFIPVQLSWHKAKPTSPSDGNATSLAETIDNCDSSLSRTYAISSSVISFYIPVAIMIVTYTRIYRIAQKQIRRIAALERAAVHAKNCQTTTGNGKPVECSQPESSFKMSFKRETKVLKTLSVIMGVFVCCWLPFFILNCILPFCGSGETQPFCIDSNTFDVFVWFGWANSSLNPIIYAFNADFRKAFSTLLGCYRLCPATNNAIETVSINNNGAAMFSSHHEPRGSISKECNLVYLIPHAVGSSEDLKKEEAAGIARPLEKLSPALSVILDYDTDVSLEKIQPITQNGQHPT
- assay method text: Activity at other aminergic receptors
pEC50: −log10 of the molar value.
assay readout: pEC50

Ask: Provide value of pEC50 for this record tested with UniProt P21728: CCC(N)Cc1cc(OC)c(C)cc1OC (stereo not shown) [Ariadne]
Reply: < 5.00

* * *

- experimental target: 5-HT1D receptor (Homo sapiens)
- Sequence (P28221 whole entry): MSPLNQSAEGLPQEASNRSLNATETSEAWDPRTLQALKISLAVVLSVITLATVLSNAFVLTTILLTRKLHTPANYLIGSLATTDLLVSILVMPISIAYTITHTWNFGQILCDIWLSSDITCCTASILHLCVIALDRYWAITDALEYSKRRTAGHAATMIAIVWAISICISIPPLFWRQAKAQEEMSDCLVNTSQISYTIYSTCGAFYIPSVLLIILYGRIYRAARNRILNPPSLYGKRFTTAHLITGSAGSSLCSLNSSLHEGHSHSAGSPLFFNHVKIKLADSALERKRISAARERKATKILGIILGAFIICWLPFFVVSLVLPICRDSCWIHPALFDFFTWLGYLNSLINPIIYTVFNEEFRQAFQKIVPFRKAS
- assay method text: 5-HTome G protein activation BRET screen
- condition info: 5-HTome screen
assay readout: EC50

Ask: Quick one: EC50 for CC[C@@H](N)Cc1cc(OC)c(C)cc1OC [(R)-Ariadne] ?
Reply: 0.3 to 0.6 µM

* * *

Observed pKi values for 5-HT2A receptor (Homo sapiens) are listed in what follows.
When answering, recall that pKi equals minus log10 of the concentration in mol/L, and write that number alone.

compound	assay readout	endpoint result
CC[C@H](N)Cc1cc(OC)c(C)cc1OC [(S)-Ariadne]	pKi	6.66

Ask: Quick one: pKi for CC[C@@H](N)Cc1cc(OC)c(C)cc1OC [(R)-Ariadne] ?
Reply: 7.28

* * *

- experimental target: dopamine 2 receptor (Homo sapiens)
- Sequence (P14416 whole entry): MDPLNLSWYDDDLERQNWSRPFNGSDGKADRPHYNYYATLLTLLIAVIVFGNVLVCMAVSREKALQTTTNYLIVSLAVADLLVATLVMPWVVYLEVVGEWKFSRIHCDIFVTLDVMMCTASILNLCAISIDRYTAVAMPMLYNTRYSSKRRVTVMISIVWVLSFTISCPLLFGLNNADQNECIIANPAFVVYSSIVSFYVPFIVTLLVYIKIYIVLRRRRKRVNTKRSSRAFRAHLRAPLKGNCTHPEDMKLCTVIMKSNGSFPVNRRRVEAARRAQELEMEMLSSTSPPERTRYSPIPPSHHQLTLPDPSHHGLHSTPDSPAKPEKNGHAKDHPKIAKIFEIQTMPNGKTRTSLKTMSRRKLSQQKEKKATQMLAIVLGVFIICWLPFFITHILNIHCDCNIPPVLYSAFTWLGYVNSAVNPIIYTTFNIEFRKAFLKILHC
- assay method text: Activity at other aminergic receptors
assay readout: EC50

Ask: Quick one: EC50 for CCC(N)Cc1cc(OC)c(C)cc1OC (stereo not shown) [Ariadne] ?
Reply: > 10 µM

* * *

- experimental target: 5-HT2C receptor (Homo sapiens, UniProt P28335)
- Sequence (P28335 33-458): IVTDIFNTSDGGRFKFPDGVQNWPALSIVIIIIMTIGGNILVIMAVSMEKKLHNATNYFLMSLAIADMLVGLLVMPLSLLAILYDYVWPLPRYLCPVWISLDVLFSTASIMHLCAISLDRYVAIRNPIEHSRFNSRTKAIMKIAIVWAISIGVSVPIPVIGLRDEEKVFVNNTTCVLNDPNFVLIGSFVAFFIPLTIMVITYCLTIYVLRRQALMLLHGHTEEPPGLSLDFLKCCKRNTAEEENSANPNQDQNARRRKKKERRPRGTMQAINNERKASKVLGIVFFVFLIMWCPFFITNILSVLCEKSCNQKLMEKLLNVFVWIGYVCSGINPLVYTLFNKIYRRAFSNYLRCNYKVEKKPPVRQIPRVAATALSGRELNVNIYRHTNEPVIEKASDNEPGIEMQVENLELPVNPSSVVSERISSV
- assay method text: G protein
- Format: cell-based
- condition info: 5-HTome screen
assay readout: EC50

Ask: Quick one: EC50 for CC[C@@H](N)Cc1cc(OC)c(C)cc1OC [(R)-Ariadne] ?
Reply: < 1 µM

* * *

- experimental target: adrenergic receptors
- assay method text: Activity at other aminergic receptors
- condition info: no/low activity
assay readout: EC50

Ask: Quick one: EC50 for CCC(N)Cc1cc(OC)c(C)cc1OC (stereo not shown) ?
Reply: > 10 µM

* * *

- experimental target: 5-HT1F receptor (Homo sapiens, UniProt P30939)
- Sequence (P30939 whole entry): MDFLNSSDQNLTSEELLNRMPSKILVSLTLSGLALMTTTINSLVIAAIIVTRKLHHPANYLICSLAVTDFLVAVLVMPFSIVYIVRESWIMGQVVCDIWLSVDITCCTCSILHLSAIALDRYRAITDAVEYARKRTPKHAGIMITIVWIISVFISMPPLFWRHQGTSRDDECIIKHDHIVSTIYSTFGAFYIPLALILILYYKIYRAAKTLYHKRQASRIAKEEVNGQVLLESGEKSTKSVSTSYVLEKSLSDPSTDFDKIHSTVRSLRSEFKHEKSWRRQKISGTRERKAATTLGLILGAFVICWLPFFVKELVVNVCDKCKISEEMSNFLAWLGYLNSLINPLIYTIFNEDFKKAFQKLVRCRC
- assay method text: 5-HTome G protein activation BRET screen
- condition info: 5-HTome screen
pEC50: −log10 of the molar value.
assay readout: pEC50

Ask: Quick one: pEC50 for CC[C@@H](N)Cc1cc(OC)c(C)cc1OC [(R)-Ariadne] ?
Reply: 6.22 to 6.52
